Assay: Cycloheximide Counterscreen for Small Molecule Inhibitors of Shiga Toxin; further: read at 38.3 µM for the half of the compounds with a filed dose; 0% is about no effect
Conditions: cell reporter, cycloheximide protein synthesis inhibition counterscreen
Out of some 300,000 compounds screened, about 37,000 (12%) were called active. No stated cut-off is given here; in the data, active means max response mostly above about 13% (no sharp cut-off); inactive means mostly below about 14%. This excerpt belongs to a sample that is enriched for actives.
Possible outcomes: active, inactive

# compound, assignedClass
measured = [
    ("CCOc1ccc(NC(=O)c2cccc3c2C(=O)N(CC2CCCO2)C3)cc1 (configuration not stated)", "inactive"),
    ("CCOC(=O)c1c(Cc2ccc(Cl)cc2)c[nH]c1C", "active"),
    ("CCCCCCn1cc(C(=O)O)c(=O)c2cc(F)c(N3CCCCC3)cc21", "inactive"),
    ("CCOC(=O)c1c(S(=O)(=O)Nc2cccc(Cl)c2)c(C)n(C)c1C", "inactive"),
    ("COc1cccc2sc(N(CCCN(C)C)C(=O)C(c3ccccc3)c3ccccc3)nc12", "inactive"),
    ("CCCCc1cc(=O)oc2c(C)c(OCC(=O)N3CCC(C(N)=O)CC3)ccc12", "inactive"),
    ("CCN1C(=S)N[C@@H](c2cccc(C(F)(F)F)c2)C(C(=O)OC)=C1C", "inactive"),
    ("CCc1c(O)nc(SCC(=O)N2CCCCC2)n(-c2ccccc2C)c1=O", "inactive"),
    ("N/C(=N\\OC(=O)Nc1ccc(Cl)c(Cl)c1)c1ncc(C(F)(F)F)cc1Cl", "inactive"),
    ("N/C(=N\\OC(=O)Nc1ccccc1)c1ccno1", "active"),
    ("CCOc1ccc(CNC(=O)C2CCCN(c3nnc(C)c4c(C)n(-c5ccccc5)nc34)C2)cc1 (configuration not stated)", "inactive"),
    ("CC(=O)NNC1=Nc2ccccc2N(C)C(C)C1 (configuration not stated)", "inactive"),
    ("Cc1ccc(-n2c(SCC(=O)N3CCC(C(=O)O)CC3)nc3ccccc3c2=O)cc1C", "active"),
    ("Cc1cc(C)nc(-n2ncc3c2CC(c2ccc(C(C)C)cc2)CC3=O)n1 (configuration not stated)", "inactive"),
    ("CCOC(OCC)OCC", "inactive"),
    ("COc1cccc(Nc2nc(N)c([N+](=O)[O-])c(NCc3ccco3)n2)c1", "active"),
    ("Cc1ccc(S(=O)(=O)c2c(COC(=O)c3cccc(Cl)c3)c(-c3ccccc3)nn2C)cc1", "inactive"),
    ("COc1ccc(S(=O)(=O)c2c[nH]c(=S)[nH]c2=O)cc1Cl", "inactive"),
    ("O=S(=O)(NCCc1csc(-c2ccccc2)n1)c1cccnc1", "active"),
    ("O=C(OCc1ccc(-c2ccccc2)cc1)c1cccc(O)c1", "active"),
    ("Cc1nc(CNS(=O)(=O)c2cccnc2)cs1", "inactive"),
    ("C=C(C)C(=O)Nc1cccc(C2=NOC3(C2)C[C@H](C(N)=O)N(C(=O)C(c2ccccc2)c2ccccc2)C3)c1 (some centres not stated)", "inactive"),
]

----------
Experiment: Cycloheximide Counterscreen for Small Molecule Inhibitors of Shiga Toxin; further: read at 38.3 µM for the half of the compounds with a filed dose; 0% is about no effect
Settings: cell reporter, cycloheximide protein synthesis inhibition counterscreen
Among all 300,000 compounds or so, about 37,000 (12%) were called active. Rule as the data show it: active = max response mostly above about 13% (no sharp cut-off); inactive = mostly below about 14%. This excerpt belongs to a sample that is enriched for actives.
Outcomes: active, inactive

# molecule, assignedClass
data = [
    ("O=C(NNc1c2ccccc2nc2ccccc12)c1cc2ccccc2cc1O", "inactive"),
    ("CN1/C(=c2/s/c(=C3/C(=O)N(c4ccccc4)NC3=Nc3ccccc3)n(C)c2=O)C(C)(C)c2ccccc21", "inactive"),
    ("CCc1nn(CCCC(=O)NCc2ccc(C)cc2)c(=O)c2cc3occc3n12", "inactive"),
    ("COc1cc(OC)cc(C(=O)N[C@H](C(=O)Nc2nc3ccccc3[nH]2)C(C)C)c1", "inactive"),
    ("c1ccc(Cc2cc[n+](Cc3ccccc3)cc2)cc1", "inactive"),
    ("Cc1ccccc1C(=O)N1CCC(C(=O)Oc2ccc(C#N)cc2)CC1", "inactive"),
    ("CC(C)(C)OC(=O)NNc1c2ccccc2nc2ccccc12", "active"),
    ("CCC(=O)OCCNc1nc(-c2ccccc2)nc2ccccc12", "inactive"),
    ("COc1cc2c(cc1OC)CC1(CCCCC1)N=C2", "inactive"),
    ("COC(=O)Nc1nc2ccc(Sc3ccccc3)cc2[nH]1", "active"),
    ("CC1CN(S(=O)(=O)c2ccc(C(=O)Nc3sccc3C(N)=O)cc2)CC(C)O1 (stereo unspecified)", "inactive"),
]

----------
Test: Cycloheximide Counterscreen for Small Molecule Inhibitors of Shiga Toxin; further: read at 38.3 µM for the half of the compounds with a filed dose; 0% is about no effect
Details: cell reporter, cycloheximide protein synthesis inhibition counterscreen; stronger effect = higher value
Hit rate of the full screen: of about 300,000 compounds, about 37,000 (12%) were called active. The sample holds actives, similar compounds and a random draw of the others, so the mix is not that of the screen.
Attribute: max response

# compound, max response, %
records = [
    ("O=C1c2ccccc2C2=Nc3ccccc3SC(c3ccccc3F)C12 (stereo not drawn)", 9.05),
    ("c1ccc2[nH]c(-c3nc4ccccc4[nH]3)nc2c1", 33.9),
    ("NC1=NC(=O)C(Cc2cccc(Cl)c2)S1 (stereo not drawn)", 13),
    ("O=C(CSc1ccc(-c2ccccn2)nn1)Nc1ccccc1", 20),
    ("Cc1ccc(-c2nc3ccccc3[nH]2)cc1N", 34.2),
    ("COC(=O)N/N=C/c1ccc(/C=N/NC(=O)OC)cc1", -2.42),
    ("CCOC(=O)c1ccc(NC(=O)c2cc(=O)[nH]c3ccccc23)cc1", -2),
    ("O=C(CC1N=C2c3ccccc3N=C(SCc3ccccc3Cl)N2C1=O)NCc1ccco1 (stereo not drawn)", 18),
    ("Cc1ccnc(NS(=O)(=O)c2ccc(NC(=O)c3oc4ccc(F)cc4c3C)cc2)n1", -2.51),
    ("C=CCSC(CC)(CC)C(N)=O", -2.64),
    ("CCOC(=O)C1CCN(C(=O)COc2cccc3ccccc23)CC1", 21.6),
    ("NS(=O)(=O)c1ccc(CCNC(=O)c2ccc([N+](=O)[O-])cc2[N+](=O)[O-])cc1", -3.47),
    ("COc1cc(CCC(=O)OCC(=O)Nc2cccc(S(N)(=O)=O)c2)cc(OC)c1OC", -3.66),
    ("Cc1ccccc1NC(=O)CSc1ccc2nnc(-c3ccccn3)n2n1", -1.54),
    ("OC(c1nc2ccccc2[nH]1)C(O)C(O)C(O)c1nc2ccccc2[nH]1 (stereo not drawn)", -2.45),
    ("C[C@@H]1O[C@@H](OC[C@H]2O[C@@H](Oc3cc(O)c4c(c3)O[C@H](c3ccc(O)c(O)c3)CC4=O)[C@H](O)[C@@H](O)[C@@H]2O)[C@H](O)[C@H](O)[C@H]1O", -3.85),
    ("CCC(C)NC(=O)CSC1=Nc2ccccc2C2=NC(CCC(=O)NCc3ccco3)C(=O)N12 (stereo not drawn)", 0.985),
    ("O=C(O)c1ccc(/C=N/NC(=O)c2ccc(Br)cc2)cc1", -2.33),
    ("O=C(COc1ccc(Cl)cc1)NC(=S)Nc1ccccc1N1CCOCC1", 1.2),
    ("COc1ccc(NC(=O)CSc2ccc(-c3ccco3)nn2)c(OC)c1", 9.5),
    ("CCOC(=O)C1CCN(C(=O)COc2cc(C)c(Br)c(C)c2)CC1", -0.76),
    ("COc1cc(NC(=O)CSc2ccc(-c3cccnc3)nn2)cc(OC)c1", -2.34),
    ("O=C(O)C1CCCN1C1=NS(=O)(=O)c2ccccc21 (stereo not drawn)", -4.57),
]

----------
Assay: Cycloheximide Counterscreen for Small Molecule Inhibitors of Shiga Toxin; further: read at 38.3 µM for the half of the compounds with a filed dose; 0% is about no effect
Details: cell reporter, cycloheximide protein synthesis inhibition counterscreen; stronger effect = higher value
Hit rate of the full screen: of about 300,000 compounds, about 37,000 (12%) were called active. The full list was thinned out, with actives kept by preference.
readoutKind: max response (%)

# molecule, reportedValue
records = [
    ("C/C(CC1CC(C)(C)OC1=O)=N/Nc1nc(-c2ccccc2)cs1 (stereo unspecified)", 24.7),
    ("Cc1cccc(N2C(=O)c3cccnc3C2=O)c1", 7.77),
    ("Cc1cc(Cl)c(S(=O)(=O)NCC2CCCO2)cc1OCC(N)=O (stereo unspecified)", -0.524),
    ("Nc1nc(NCc2ccccc2)n(-c2ccccc2)n1", -3.49),
    ("O=C(c1cc(-c2ccncc2)nc2ccccc12)N1CCC2(CC1)OCCO2", 2.43),
    ("Cc1ccc(NS(=O)(=O)c2cc3c(cc2C)NC(=O)CO3)cc1", -3.17),
    ("Cc1cc2c(cc1C)N(C(=O)CN1C(=O)c3ccccc3C1=O)C(C)(C)c1ssc(=S)c1-2", -0.934),
    ("Cc1ccc(-c2nnc(CN3CCN(C)CC3)o2)cc1", 11.1),
    ("Cc1ccc(Nc2ccccc2N)cc1", 33.2),
    ("Cn1c(SCC(=O)N2CCCc3ccccc32)nc2ccccc2c1=O", -3.04),
    ("COc1ccc(CCNC(=O)CSc2nc(-c3ccc(OC)c(OC)c3)ccc2C#N)cc1", -0.296),
    ("COC(=O)c1ccc(COC(=O)c2cnccn2)cc1", -1.89),
    ("CC(C)(C)NCCCOc1ccc(Cl)cc1C(C)(C)C", -3.93),
    ("CCNc1ccc(C(=O)OCC(=O)N2c3ccccc3NC(=O)C2(C)C)cc1[N+](=O)[O-]", -4.72),
    ("CC(C)(C)c1ccc(C(=O)N2CCC(C(=O)N3CCCCC3)CC2)cc1", -2.39),
    ("COC(=O)c1ccc(COC(=O)c2cnc(Cl)c(Cl)c2)cc1", 34.6),
    ("Cc1ccc(NC(=O)c2ccc(S(=O)(=O)NCC3CCCO3)cc2)cc1C (stereo unspecified)", 9.52),
    ("O=C(c1ccccc1)c1ccc(OC(=O)N2CCCC2)cc1", 37.5),
    ("O=C(c1cc(-c2ccc(O)cc2)on1)N1CCOCC1", 27.7),
    ("O=C(Nc1cccc(OC(=O)N2CCCCC2)c1)N1CCOCC1", 5.17),
    ("CC1CCCN(S(=O)(=O)c2ccc(N(C(=O)c3cnccn3)C(C(=O)NC3CCCCC3)c3cccs3)cc2)C1 (stereo unspecified)", -3.46),
    ("COc1ccc(CCNC(=O)CN2C(=O)CCSc3ccccc32)c(OC)c1", -1.78),
    ("Cn1c(=O)[nH]c(=O)c2c1nc(CN1CCN(c3ccccc3F)CC1)n2CCc1ccccc1", 2.36),
    ("Fc1ccc2[nH]c3c(N4CCN(Cc5ccc6c(c5)OCO6)CC4)ncnc3c2c1", -4.86),
    ("CCc1ccc(C(=O)CSc2nnc(C)c(=O)[nH]2)cc1", 1.57),
    ("Cc1ccc(-c2cc(=O)c3ccc(F)cc3[nH]2)cc1", 6.8),
    ("Cc1ccc2[nH]cc(CCNC(=O)C3CCCCC3)c2c1", 0.628),
    ("Cc1cc2nc(SCCN3CCOCC3)[nH]c2cc1C", 32.3),
    ("O=C(c1cc(-c2ccc(Cl)cc2)on1)N1CCN(c2ccccc2)CC1", 30.2),
    ("CCCn1nc(C(=O)N2CCCc3ccccc32)c2ccccc2c1=O", -1.1),
    ("CCn1c2ccc(F)cc2c2nnc(SCCN3CCOCC3)nc21", 8.52),
    ("O=C(c1[nH]ncc1-c1ccc(Cl)cc1)C1CO1 (stereo unspecified)", 16.3),
    ("CC(C)(C)c1ccc(OC(=O)N2CCCCC2)cc1", 54.1),
    ("O=C(c1cc(-c2ccc(F)cc2)on1)N1CCN(c2ccc(F)cc2)CC1", -2.49),
    ("COc1ccc(C[C@H](C(=O)O)N2C(=O)c3ccc(C(=O)O)cc3C2=O)cc1", -3.3),
    ("CC(CNc1ccc([N+](=O)[O-])cc1)NC(=O)c1ccccc1Br (stereo unspecified)", -2.28),
    ("CC(C)c1ccc(NC2CCCN(C(=O)c3ccncc3)C2)cc1 (stereo unspecified)", -4.01),
    ("Cc1cc(C)cc(N(CC(=O)NCCSCc2ccco2)S(C)(=O)=O)c1", -3.57),
    ("Cc1cc(Cl)c(S(=O)(=O)N(C)C)cc1OCC(N)=O", 4.25),
    ("Cc1cccc(C)c1OCCN1CCOCC1", 0.405),
    ("O=c1cc(-c2ccccc2)[nH]c2cc(F)ccc12", -3.07),
    ("O=C(c1nnc(-c2ccc(Cl)cc2)o1)C1CCCC1", 15.5),
    ("COc1ccc(CCNC(=O)c2nnc(CS(=O)(=O)c3ccccc3)o2)cc1OC", -0.612),
    ("O=C(c1cc(-c2cccc(O)c2)on1)N1CCc2ccccc2C1", 7.88),
    ("Nc1ccc(Nc2ccccc2)cc1", -1.73),
    ("O=C(c1cc(-c2ccc(O)cc2)on1)N1CCCc2ccccc21", 32.9),
]
